Record type: GI50 measurement. Applies to: MCF7 (Breast)
Answers are plain numbers, in µM.

stdin: Find the measured GI50: item C[C@]12CCC(=NOCCN)C=C1CCC1C2CC[C@@]2(C)C1CC[C@@H]2O (some centres unmarked) , target or system MCF7 (Breast).
stdout: 7.04

Then there is this compound:
stdin: Find the measured GI50: item C[C@]12CCC(=NOCCN)C=C1CCC1C2CC[C@]2(C)C(=O)CCC12 (some centres unmarked) , target or system MCF7 (Breast).
stdout: 3.79

---

# Tested on: DU145 (Prostate)
# measurementDescription: SRB assay, DU145
# Type: cell-based, human
# testContext: Homo sapiens, DU-145, 48 h, read-out: LC50
# note: boundary value 900 nM maps to false; CC50 below it maps to true

Reference set (5 entries):
stdin: Strictly below 900 nM: is that where CC50 of C[C@H]1O[C@@H](O[C@H]2[C@@H](O)C[C@H](O[C@H]3[C@@H](O)C[C@H](O[C@H]4CC[C@@]5(C)[C@H](CC[C@@H]6[C@@H]5C[C@@H](O)[C@]5(C)[C@@H](C7=CC(=O)OC7)CC[C@]65O)C4)O[C@@H]3C)O[C@@H]2C)C[C@H](O)[C@@H]1O [Digoxin, reference compound] sits?
stdout: true

stdin: Would you mind doing C[C@]12CCC(=NOCCN)CC1CCC1C2CC[C@]2(C)C(=O)CCC12 (stereo partly shown) [Compound 1] as well?
stdout: true

stdin: Would you mind doing C[C@]12CCC(=NOCCN)C=C1CCC1C2CC[C@@]2(C)C1CC[C@@H]2O (stereo partly shown) [Compound 120] as well?
stdout: false

stdin: Would you mind doing C[C@]12CCC(=NOC3CCNC3)CC1CCC1C2CC[C@]2(C)C(=O)CCC12 (stereo partly shown) [Compound 56] as well?
stdout: true

stdin: Would you mind doing C[C@]12CCC(=NOCCN)C=C1CCC1C2CC[C@]2(C)C(=O)CCC12 (stereo partly shown) [Compound 12] as well?
stdout: false

For the next question, use this compound.
stdin: Strictly below 900 nM: is that where CC50 of CC(=O)O[C@H]1C(=O)[C@@]2(C)[C@H]([C@H](OC(=O)c3ccccc3)[C@]3(O)C[C@H](OC(=O)[C@H](O)[C@@H](NC(=O)c4ccccc4)c4ccccc4)C(C)=C1C3(C)C)[C@]1(OC(C)=O)CO[C@@H]1C[C@@H]2O [Paclitaxel, reference compound] sits?
stdout: true

---

# targetUnderTest: Na+/K+-ATPase (Adenosine 5′-Triphosphatase isolated from porcine cerebral cortex)
# measurementDescription: Na+/K+-ATPase inhibitory activity, colorimetric Adenosine 5'-Triphosphatase Enzymatic Assay
# Format: biochemical
# testContext: read-out: Na+K+ ATPase inhibitory activity IC50
# Procedure: The inhibitory effect of a compound of the invention on ATPase activity was assessed in vitro using the colorimetric Adenosine 5′-Triphosphatase Enzymatic Assay of Sigma (St. Louis, Mo.) according to the manufacturer's instructions. This assay utilizes Adenosine 5′-Triphosphatase isolated from porcine cerebral cortex. […] IC50 values were determined using the Origin® program software (OriginLab, Northampton, Mass.).
reportedEndpoint: pIC50
Numbers only, as −log10 of the molar value.

stdin: Recorded pIC50 of C[C@]12CCC(=NOCCN)CC1CCC1C2CC[C@]2(C)C(=O)CCC12 (stereo partly shown) , please.
stdout: 6.91

stdin: Would you mind doing C[C@]12CCC(=NOCCN)C=C1CCC1C2CC[C@]2(C)C(=O)CCC12 (stereo partly shown) as well?
stdout: 6.43

Provide the reported pIC50 of each entry below, same order.
1. C[C@]12CCC(=NOC3CCNC3)CC1CCC1C2CC[C@]2(C)C(=O)CCC12 (stereo partly shown)
2. C[C@H]1O[C@@H](O[C@H]2[C@@H](O)C[C@H](O[C@H]3[C@@H](O)C[C@H](O[C@H]4CC[C@@]5(C)[C@H](CC[C@@H]6[C@@H]5C[C@@H](O)[C@]5(C)[C@@H](C7=CC(=O)OC7)CC[C@]65O)C4)O[C@@H]3C)O[C@@H]2C)C[C@H](O)[C@@H]1O [Digoxin, reference compound]

stdout:
[7.00, 6.69]

These measurements were taken from patent US20120238488A1.
